Recorded pIC50 by entry
Test system: IL-2 production
Experiment: Inhibition of IL-2 production in PHA-activated Jurkat cells (ELISA)
Type: cell-based
Conditions: Homo sapiens, PHA 2.5 μg/mL, 20 hours
Conceptually, pIC50 converts a concentration in mol/L into minus its log10.

// worked examples, pIC50 included
Looking up "O=C(Nc1cnc(-n2c(C(F)(F)F)nc3cc(-c4nnco4)ccc32)cn1)c1c(F)cccc1F" , I found its pIC50 recorded as 7.41

Looking up "Cc1nnc(-c2ccc3c(c2)nc(C(F)(F)F)n3-c2cnc(NC(=O)c3c(F)cccc3F)cn2)o1" , I found its pIC50 recorded as 7.08

Looking up "O=C(Nc1cnc(-n2c(C(F)(F)F)nc3cc([N+](=O)[O-])ccc32)cn1)c1c(F)cccc1F" , I found its pIC50 recorded as 7.05

***
Looking up "O=C(Nc1cnc(-n2c(C(F)(F)F)nc3cc(O)ccc32)cn1)c1c(F)cccc1F" , I found its pIC50 recorded as 7.47

Looking up "COc1ccc2c(c1)nc(C)n2-c1cnc(NC(=O)c2c(F)cccc2F)cn1" , I found its pIC50 recorded as 6.99

Looking up "CN(C)c1ccc2c(c1)nc(C(F)(F)F)n2-c1cnc(NC(=O)c2c(F)cccc2F)cn1" , I found its pIC50 recorded as 7.54

Looking up "Nc1ccc2c(c1)nc(C(F)(F)F)n2-c1cnc(NC(=O)c2c(F)cccc2F)cn1" , I found its pIC50 recorded as 7.01
